- Tested on: ACHN
- ASSAY NOTES: NCI tumour cell line growth inhibition, 48 h
Calls of active or inactive are those of the source. No stated cut-off is given here; in the data, active = GI50 up to about 1.1 µM and inactive = higher.
// allowed return values: active, inactive

compound=CN1C(Cl)=NS(=O)(=O)c2ccccc21 discrete_label=inactive
compound=NC1=Nc2ccccc2Sc2nnc(-c3ccc(Cl)cc3)n21 discrete_label=inactive
compound=O=c1[nH]c2nccnc2c2c([N+](=O)[O-])cccc12 discrete_label=inactive
compound=CCN(CC)CCn1c(=O)c2ccccc2n2c3c(=O)n(C)c(=O)n(C)c3nc12 discrete_label=active
compound=O=[N+]([O-])c1ccc(Sc2c3ccccc3nc3ccccc23)nc1 discrete_label=inactive
compound="CN(C)CC(/C(Cc1ccccc1)=N\\NC(=S)NN)c1ccccc1 (stereo unspecified)" discrete_label=inactive
compound="CC(=O)OCC12CN(C#N)C3C4COC(CC41)C1(C(=O)N(C)c4ccccc41)C32 (stereo unspecified)" discrete_label=inactive
compound="CC(C)Cc1cc2c(cc1O)CCC1C2CC[C@@]2(C)C1CC[C@@H]2O (stereo partly specified)" discrete_label=inactive

Answer briefly: the call reported for NC1C=NNC1=O (stereo unspecified) in this assay.
inactive

Answer briefly: the call reported for CCCP1(=O)C=C(C)C(=C(Cl)Cl)C(C)=C1 (stereo unspecified) in this assay.
inactive

Answer briefly: the call reported for "Fc1ccc(C2(CCCN3CCc4[nH]c5cc(F)ccc5c4C3)OCCO2)cc1" in this assay.
inactive
